experiment: toxicity in mice: body weight and observations after IP administration; format: in vivo; settings: female mice, 200 mg/kg IP, day 14
Parameter Measured: body weight (g)
Only the number, expressed in g, is required.

Input line: GET /values?readout=body weight&item= CC(C)c1ccc(-c2cn3nc(N4CCC(CN5CCN(CCO)CC5)CC4)sc3n2)cc1
Output line: 30.8

---

assay: toxicity in mice: body weight and observations after IP administration; type: in vivo; conditions: female mice, 400 mg/kg IP, day 12
Parameter Measured: body weight
Give me the value, and tack the unit on after it.

Input line: GET /values?readout=body weight&item= CC(C)c1ccc(-c2cn3nc(N4CCC(CN5CCN(CCO)CC5)CC4)sc3n2)cc1
Output line: 29.4 g

---

Experiment: toxicity in mice: body weight and observations after IP administration
Assay type: in vivo
Conditions: male mice, 400 mg/kg IP, day 4
Protocol: Compound (I) was dissolved in 20% hydroxypropylcyclodextrane and the volume of administration (IP) was 10 ml/kg.
Parameter Measured: body weight (g)
Only the number, expressed in g, is required.

Input line: Please report the recorded body weight for CC(C)c1ccc(-c2cn3nc(N4CCC(CN5CCN(CCO)CC5)CC4)sc3n2)cc1 .
Output line: 40.8

---

test: toxicity in mice: body weight and observations after IP administration; type: in vivo; conditions: male mice, 200 mg/kg IP, day 13
Parameter Measured: body weight (g)
Express the result in g but write the number alone.

Input line: I am curious: what body weight value has been reported for CC(C)c1ccc(-c2cn3nc(N4CCC(CN5CCN(CCO)CC5)CC4)sc3n2)cc1 ?
Output line: 37.9

---

test: toxicity in mice: body weight and observations after IP administration; format: in vivo; settings: female mice, 100 mg/kg IP, day 1
Parameter Measured: body weight (g)
Just the number please, in g, no unit attached.

Input line: Please give the measured body weight for this compound: CC(C)c1ccc(-c2cn3nc(N4CCC(CN5CCN(CCO)CC5)CC4)sc3n2)cc1
Output line: 36.1
